# METHOD_SUMMARY: mn = molality of the nth substance listed, in mol/kg
# EXPERIMENTAL_CONTEXT: 298.15 K; 100 kPa; Liquid; Frequency=2 MHz; Linear variable-path acoustic interferometer; m2 = 0
MEASURED_PARAMETER: speed of sound (m/s)

[
  {
    "COMPOUND": "O [water] + CCCCn1cc[n+](C)c1.CC[C@H](C)[C@H](N)C(=O)[O-]",
    "UNIT_INFO": "m/s",
    "RECORDED_NUMBER": 1497.8
  },
  {
    "COMPOUND": "O [water] + CC(C)[C@H](N)C(=O)[O-].CCCCn1cc[n+](C)c1",
    "UNIT_INFO": "m/s",
    "RECORDED_NUMBER": 1497.6
  },
  {
    "COMPOUND": "O [water] + CCCCn1cc[n+](C)c1.C[C@H](N)C(=O)[O-]",
    "UNIT_INFO": "m/s",
    "RECORDED_NUMBER": 1497.8
  },
  {
    "COMPOUND": "O [water] + CC(C)C[C@H](N)C(=O)[O-].CCCCn1cc[n+](C)c1",
    "UNIT_INFO": "m/s",
    "RECORDED_NUMBER": 1497.6
  },
  {
    "COMPOUND": "O [water] + CCCCn1cc[n+](C)c1.NCC(=O)[O-]",
    "UNIT_INFO": "m/s",
    "RECORDED_NUMBER": 1497.6
  }
]
